Exercise: state measured koff for each of the binders provided.
study-system: T1, human fibroblast activation protein (FAP) (human, UniProt Q12884 26-760)
T1 construct: also called human FAP; hFAP
T1 sequence: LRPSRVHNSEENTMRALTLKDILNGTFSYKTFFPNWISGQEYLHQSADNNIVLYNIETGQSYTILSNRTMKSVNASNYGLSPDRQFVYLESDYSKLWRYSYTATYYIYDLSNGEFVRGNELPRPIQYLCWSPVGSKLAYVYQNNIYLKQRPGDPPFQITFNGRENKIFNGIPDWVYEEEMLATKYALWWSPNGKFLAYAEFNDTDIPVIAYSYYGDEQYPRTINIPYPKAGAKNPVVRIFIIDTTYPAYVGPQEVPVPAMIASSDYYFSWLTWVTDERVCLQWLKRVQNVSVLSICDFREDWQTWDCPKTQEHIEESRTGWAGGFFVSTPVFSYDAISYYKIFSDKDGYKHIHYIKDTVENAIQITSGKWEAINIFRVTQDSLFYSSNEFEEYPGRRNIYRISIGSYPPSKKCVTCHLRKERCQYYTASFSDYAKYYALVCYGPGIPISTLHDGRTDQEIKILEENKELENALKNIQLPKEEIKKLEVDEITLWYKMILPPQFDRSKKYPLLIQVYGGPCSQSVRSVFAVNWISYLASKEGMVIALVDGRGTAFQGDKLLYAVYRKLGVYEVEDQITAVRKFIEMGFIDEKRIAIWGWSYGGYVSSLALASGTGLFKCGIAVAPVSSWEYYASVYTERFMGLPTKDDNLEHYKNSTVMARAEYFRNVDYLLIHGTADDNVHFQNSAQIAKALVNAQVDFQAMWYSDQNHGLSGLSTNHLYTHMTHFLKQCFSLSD
assay-explanation: BLI (Octet), kinetics to human FAP, post TCO conjugation
Form entry: enter the amount, then its unit.

TCO-VHH7 (VHH, trans-cyclooctene (TCO) conjugated via TCO-NHS; site(s) and number not stated, also called TCO conjugated VHH7; VHH7 post conjugation) VHH: QVQLQESGGGLVQAGGSLRLSCTASGTFSGRNAMAWYRQAPGKRRELVAGIRSDDSTNYVDSVKGRFTISRDNAKNTVYLQMNSLRPEDTAVYYCNLWPPVIGAGFGSWGQGTQVTVSS ... 0.000123 s⁻¹
TCO-VHH8 (VHH, trans-cyclooctene (TCO) conjugated via TCO-NHS; site(s) and number not stated, also called TCO conjugated VHH8; VHH8 post conjugation) VHH: QVQLQESGGGTVQPGGSLRLSCAASGISVSIASMAWYRQAPGKQRELVAGIISGGSTNYADSVKGRFTISRDNAKKVVLLQMNSLKPEDTAVYYCNTYPPFVGPGATATWGQGTQVTVSS ... 0.000559 s⁻¹
TCO-VHH6 (VHH, trans-cyclooctene (TCO) conjugated via TCO-NHS; site(s) and number not stated, also called TCO conjugated VHH6; VHH6 post conjugation) VHH: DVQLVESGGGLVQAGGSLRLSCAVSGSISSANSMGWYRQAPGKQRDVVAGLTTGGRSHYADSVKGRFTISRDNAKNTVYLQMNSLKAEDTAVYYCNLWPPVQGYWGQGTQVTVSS ... 0.000157 s⁻¹
TCO-VHH9 (VHH, trans-cyclooctene (TCO) conjugated via TCO-NHS; site(s) and number not stated, also called TCO conjugated VHH9; VHH9 post conjugation) VHH: QVQLQESGGGLVQSGGSLRLSCVASGSISSINAMGWYRQAPGNKREWVAGITSGGSTNYADAVLGRFSIFRDNPKNTVYLQMNSLKPEDTAVYYCNTWPPSTFGSWGQGTQVTVSS ... 0.0012 s⁻¹

Switching to the query record.
Asked: Any idea what koff was measured for TCO-VHH1 (VHH, trans-cyclooctene (TCO) conjugated via TCO-NHS; site(s) and number not stated, also called TCO conjugated VHH1; VHH1 post conjugation) VHH: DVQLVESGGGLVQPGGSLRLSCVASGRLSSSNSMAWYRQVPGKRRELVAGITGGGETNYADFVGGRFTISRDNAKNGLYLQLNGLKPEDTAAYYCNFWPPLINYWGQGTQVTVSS ?
Given back: 4.99e-05 s⁻¹
